molecular target: Kappa-type opioid receptor (Rattus norvegicus); experiment: Displacement of [3H]U-69,593 from kappa opioid receptor in rat brain at 100 nM after 60 mins by liquid scintillation counting method relative to control
observationType: inhibition

Given the entry `O=[N+]([O-])c1ccc(CCN2CC[C@@]3(c4cccc(O)c4)CCC[C@@H]2[C@H]3O)cc1` , report its measured inhibition. > 50%

inhibition lookup needed for `Oc1cccc([C@]23CCC[C@H]([C@@H]2O)N(C[C@@H]2C[C@@H]2c2ccccc2)CC3)c1` , thanks. < 50%

Which inhibition value is on record for `Oc1cccc([C@]23CCC[C@H]([C@@H]2O)N(C[C@H]2C[C@H]2c2ccccc2)CC3)c1` ? < 50%

Please look up its inhibition: `Oc1cccc([C@@]23CCC[C@@H]([C@@H]2O)N(CC/C=C/c2ccccc2)CC3)c1` < 50%

Origin of measurements: ChEMBL document CHEMBL4038276
